Provenance of the data: patent US20240150797A1

procedure summary: Specific activity of purified CHI, absorbance decrease at 384 nm, hesperetin chalcone; further: unit not given here
Assay type: biochemical
run conditions: purified CHI in 50 mM PBS, 100 μM substrate, 25° C.
result type: Specific activity, Hesperetin chalcone

QUERY: Return the recorded Specific activity, Hesperetin chalcone value; entry: CHIera Mut2: Chalcone isomerase variant 2 from Eubacterium ramulus, genetically engineered (protein, listed as Eubacterium ramulus) MADFKFEPMRSLIYVDCVSEDYRPKLQRWIYKVHIPDSISQFEPYVTKYAFYPSFPIPPQGDRFGYARMQLTEHHWLVSPLDPRLEIKAIAETFPMDVLVWQGQIPAAAHTDAQIDSDGDAGRAAGKSNNAEGNPFIFAFLPMWWEKDLKGKGRTIEDGANYRFNMTIGFPEGVDKAEGEKWLFEKVVPILQAAPECTRVLASAVKKDINGCVMDWVLEIWFENQSGWYKVMVDDMKALEKPSWAQQDAFPFLKPYHNVCSAAVADYTPSNNLANYRGYITMR
RESULT: 11.5
